# System: SPN 49619
# test-summary: MIC, broth microdilution (CLSI), substance alone or ATB combined with compound at 4 or 8 μg/mL
# Format: cell-based, S. pneumoniae
# protocol-conditions: ATB FEP; SPN 49619; Example @8 μg/ml
quantity-measured: MIC ATB combined with Example

Known MIC ATB combined with Example results, listed for orientation:
compound: O=C1N2CC(n3cncn3)=CC(C2)N1OS(=O)(=O)[O-].[Na+] (centres unmarked)
MIC ATB combined with Example: <=0.031 μg/mL

compound: O=C1N2CC(n3ccnn3)=CC(C2)N1OS(=O)(=O)[O-].[Na+] (centres unmarked)
MIC ATB combined with Example: <=0.031 μg/mL

compound: NCCCn1c2c(sc1=O)C1CN(C2)C(=O)N1OS(=O)(=O)O (centres unmarked)
MIC ATB combined with Example: <0.031 µg/mL

compound: O=C1N2CC(n3cccn3)=CC(C2)N1OC(F)(F)C(=O)[O-].[Li+] (centres unmarked)
MIC ATB combined with Example: 0.063 µg/mL

Here is another compound to look at.
Query :: State its MIC ATB combined with Example on SPN 49619: O=C1N2CC(n3cccn3)=CC(C2)N1OS(=O)(=O)[O-].[Na+] (centres unmarked)
Result :: <=0.031 μg/mL

---

# System: KPN 6299
# test-summary: MIC, broth microdilution (CLSI), substance alone or ATB combined with compound at 4 or 8 μg/mL
# Assay type: cell-based, K. pneumoniae
# protocol-conditions: with Example 11 at 8 μg/ml
quantity-measured: MIC ATB combined with Example 11 @8 μg/ml

compound: NCC[C@H](O)C(=O)N[C@@H]1C[C@H](N)[C@@H](O[C@H]2O[C@H](CN)[C@@H](O)[C@H](O)[C@H]2O)[C@H](O)[C@H]1O[C@H]1O[C@H](CO)[C@@H](O)[C@H](N)[C@H]1O [AN, Amikacin, reference compound]
value-observed: <0.031 µg/mL

compound: C[C@@H](O)[C@H]1C(=O)N2C(C(=O)O)=C(SCCN=CN)C[C@H]12
value-observed: <0.031 µg/mL

Here is another compound to look at.
Query :: Could you tell me which MIC ATB combined with Example 11 @8 μg/ml is on file for CO/N=C(\C(=O)N[C@@H]1C(=O)N2C(C(=O)[O-])=C(C[n+]3cccc4c3CCC4)CS[C@H]12)c1csc(N)n1 ?
Result :: <0.031 µg/mL

---

In this section, each of the molecules is paired with its reported MIC ATB combined with Example 9 @4 μg/ml.
# Tested on: SAU 29213
# test-summary: MIC, broth microdilution (CLSI), substance alone or ATB combined with compound at 4 or 8 μg/mL
# Assay type: cell-based, S. aureus
# protocol-conditions: SAU 29213; with Example 9 @4 μg/ml

smiles-record: CO/N=C(\C(=O)N[C@@H]1C(=O)N2C(C(=O)[O-])=C(C[n+]3cccc4c3CCC4)CS[C@H]12)c1csc(N)n1
MIC ATB combined with Example 9 @4 μg/ml: <0.031 µg/mL

Query :: State its MIC ATB combined with Example 9 @4 μg/ml on SAU 29213: CO[C@H]1/C=C/O[C@@]2(C)Oc3c(C)c(O)c4c(O)c(c(/C=N/N5CCN(C)CC5)c(O)c4c3C2=O)NC(=O)/C(C)=C\C=C\[C@H](C)[C@H](O)[C@@H](C)[C@@H](O)[C@@H](C)[C@H](OC(C)=O)[C@@H]1C
Result :: 0.002 µg/mL

---

In this section, each of the molecules is paired with its reported FIC index min.
# Tested on: KPN UFR68
# test-summary: Fractional Inhibitory Concentration Index, checkerboard assay
# Format: cell-based, K. pneumoniae
# protocol-conditions: compound +FEP
# Description: Method 2: Determination of the Fractional Inhibitory Concentration Index Serial 2-fold dilutions of each antibiotic tested were prepared in ca-MHB and mixed in each well of a 96-well microtiter plate so that each row (and column) contained a fixed amount of one agent and increasing amounts of the second agent. […] MICs were determined after overnight incubation, and the fractional inhibitory concentration (FIC) index was calculated for each well. […]

Query :: Could you tell me which FIC index min is on file for NC[C@H]1C=C(c2cnco2)[C@@H]2CN1C(=O)N2OS(=O)(=O)[O-].O=C(O)C(F)(F)F.[Na+] (relative stereo) ?
Result :: ≤0.0088

Query :: Could you tell me which FIC index min is on file for O=C1N2CC(c3cccnc3)=CC(C2)N1OS(=O)(=O)[O-].[Na+] (stereo not shown) ?
Result :: ≤0.08

Query :: Could you tell me which FIC index min is on file for NCCON=C1C[C@@H](C(N)=O)N2C[C@@H]1N(OS(=O)(=O)[O-])C2=O.[Na+] ?
Result :: ≤0.0098

Query :: Could you tell me which FIC index min is on file for O=C(O)C(F)(F)F.O=C1N2C[C@H](c3scnc3[C@H]2c2ncc[nH]2)N1OS(=O)(=O)[O-].[Na+] (relative stereo) ?
Result :: 1.0

---

In this section, each of the compounds is paired with its reported MIC ATB alone.
# Tested on: ECO UFR39
# test-summary: MIC, broth microdilution (CLSI), substance alone or ATB combined with compound at 4 or 8 μg/mL
# Assay type: cell-based, E. coli
# protocol-conditions: ECO UFR39; antibiotic alone
Express your answer in µg/mL, writing the number without its unit.

Known MIC ATB alone results, listed for orientation:
smiles-record: C[C@@H](O)[C@H]1C(=O)N2C(C(=O)O)=C(SCCN=CN)C[C@H]12
MIC ATB alone / µg/mL: 16
//
smiles-record: O=C(N[C@H](CO)[C@H](O)c1ccc([N+](=O)[O-])cc1)C(Cl)Cl
MIC ATB alone / µg/mL: 64

Here is another compound to look at.
Query :: Could you tell me which MIC ATB alone is on file for CN(C)c1cc(NC(=O)CNC(C)(C)C)c(O)c2c1C[C@H]1C[C@H]3[C@H](N(C)C)C(O)=C(C(N)=O)C(=O)[C@@]3(O)C(O)=C1C2=O ?
Result :: 0.5

---

# System: PAE 105250
# test-summary: MIC, broth microdilution (CLSI), substance alone or ATB combined with compound at 4 or 8 μg/mL
# Assay type: cell-based, P. aeruginosa
# protocol-conditions: ATB PIP; compound @4 μg/ml; PAE 105250
quantity-measured: MIC ATB combined with compound

Known MIC ATB combined with compound results, listed for orientation:
smiles-record: O=C1N2CC(c3ncco3)=C[C@H](C2)N1OS(=O)(=O)[O-].[Na+]
quantity-measured: MIC ATB combined with compound
value-observed: 32 µg/mL
//
smiles-record: NC[C@@H]1C(c2ncco2)=C[C@@H]2CN1C(=O)N2OS(=O)(=O)[O-].O=C(O)C(F)(F)F.[Na+]
quantity-measured: MIC ATB combined with compound
value-observed: <0.031 µg/mL

Here is another compound to look at.
Query :: State its MIC ATB combined with compound on PAE 105250: NCCON=C1C[C@@H](C(N)=O)N2C[C@@H]1N(OS(=O)(=O)[O-])C2=O.[Na+]
Result :: >32 µg/mL

---

# System: ECL P99
# test-summary: Fractional Inhibitory Concentration Index, checkerboard assay
# Format: cell-based, E. cloacae
# protocol-conditions: compound +ATM
quantity-measured: FIC index min
Enter a number only.

Known FIC index min results, listed for orientation:
compound: NCCn1c2c(sc1=O)C1CN(C2)C(=O)N1OS(=O)(=O)[O-].[Na+] (stereo not shown) [Example 3]
FIC index min: 0.28

compound: NC[C@@H]1CC(=NOCC(N)=O)[C@@H]2CN1C(=O)N2OS(=O)(=O)[O-].O=C(O)C(F)(F)F.[Na+] [Example 4]
FIC index min: 0.63

compound: NC[C@@H]1C(c2ncco2)=C[C@@H]2CN1C(=O)N2OS(=O)(=O)[O-].O=C(O)C(F)(F)F.[Na+] [Example 5]
FIC index min: 0.23

Query :: Could you tell me which FIC index min is on file for NC[C@H]1C=C(c2cnco2)[C@@H]2CN1C(=O)N2OS(=O)(=O)[O-].O=C(O)C(F)(F)F.[Na+] (relative stereo) [Example 1] ?
Result :: 0.50

Query :: Could you tell me which FIC index min is on file for O=C1N2CC(c3ncco3)=C[C@H](C2)N1OS(=O)(=O)[O-].[Na+] [Example 9] ?
Result :: 0.53

Query :: Could you tell me which FIC index min is on file for O=C1N2CC(c3cccnc3)=CC(C2)N1OS(=O)(=O)[O-].[Na+] (stereo not shown) [Example 8] ?
Result :: 0.53

Query :: Could you tell me which FIC index min is on file for NCCON=C1C[C@@H](C(N)=O)N2C[C@@H]1N(OS(=O)(=O)[O-])C2=O.[Na+] [Example 2] ?
Result :: 0.50
